Please go through the items and note down their EC50 group, cGMP in GTM-3 cells.
Target: T1, natriuretic peptide receptor-B (human)
T1 chain: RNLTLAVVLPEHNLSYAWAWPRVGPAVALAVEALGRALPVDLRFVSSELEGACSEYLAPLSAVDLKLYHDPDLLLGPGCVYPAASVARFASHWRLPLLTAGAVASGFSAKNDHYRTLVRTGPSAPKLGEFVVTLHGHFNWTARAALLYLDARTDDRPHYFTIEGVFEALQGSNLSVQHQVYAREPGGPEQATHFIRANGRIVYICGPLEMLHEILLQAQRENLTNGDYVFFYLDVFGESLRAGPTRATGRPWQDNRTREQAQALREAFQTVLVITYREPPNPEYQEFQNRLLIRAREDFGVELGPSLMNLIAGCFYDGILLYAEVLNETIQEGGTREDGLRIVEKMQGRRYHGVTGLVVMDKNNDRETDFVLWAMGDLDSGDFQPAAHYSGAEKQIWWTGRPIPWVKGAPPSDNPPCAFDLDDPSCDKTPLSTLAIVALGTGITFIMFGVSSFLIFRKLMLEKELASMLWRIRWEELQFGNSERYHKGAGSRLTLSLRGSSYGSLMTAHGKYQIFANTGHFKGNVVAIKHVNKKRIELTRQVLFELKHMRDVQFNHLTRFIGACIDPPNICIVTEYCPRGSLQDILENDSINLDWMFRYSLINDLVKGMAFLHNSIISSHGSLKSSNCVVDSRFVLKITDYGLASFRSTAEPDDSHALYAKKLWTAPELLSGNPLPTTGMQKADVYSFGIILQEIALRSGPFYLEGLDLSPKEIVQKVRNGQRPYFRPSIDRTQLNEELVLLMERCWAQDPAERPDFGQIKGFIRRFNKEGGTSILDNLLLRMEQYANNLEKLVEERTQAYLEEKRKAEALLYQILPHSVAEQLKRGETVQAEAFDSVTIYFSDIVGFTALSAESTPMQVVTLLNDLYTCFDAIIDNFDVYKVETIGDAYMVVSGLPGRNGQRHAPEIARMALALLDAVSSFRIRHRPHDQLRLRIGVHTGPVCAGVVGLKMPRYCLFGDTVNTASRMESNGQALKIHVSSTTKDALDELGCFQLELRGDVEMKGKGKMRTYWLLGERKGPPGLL
Assay: cell-based or functional assay
Numbered stars: 1 amine (or outer) side, 2 acyl side, 3 side chain; on linkers, the order of the positions; unused ones are H or OH. Square brackets hold non-standard residues; d marks the D form. Ends that are not written are not given here. * marks the point of attachment. AFL = (S)-2-((S)-3-amino-2-oxopyrrolidin-1-yl)-3-phenylpropanoic acid, O=C1[C@@H](N[*:1])CCN1[C@@H](Cc1ccccc1)C(=O)[*:2]; Ebe = (R)-2-amino-3-(methylsulfanyl)propanoic acid, CSC[C@H](N[*:1])C(=O)[*:2]; Hyp = O=C(O)[C@@H]1C[C@@H](O)CN1; NMeL = CN[C@@H](CC(C)C)C(=O)O; 3Amb = NCc1cccc(C(=O)O)c1; Octanoyl = CCCCCCCC(=O)*; Ac5c = NC1(C(=O)O)CCCC1; Nva = CCC[C@H](N)C(=O)O; Hexanoyl = CCCCCC(=O)*; Occ = octanoic acid

The cases that follow already have their EC50 group, cGMP in GTM-3 cells on record.
INSERT INTO assay_data (binder, experimental_result) VALUES
  ('[Occ]AFG[Nva]PLDRI-NH2 (not fully specified (residue 2); printed as Occ-ala-Phe-Gly-Nva-Pro-Leu-Asp-Arg-Ile-NH2) [JAL-0996]', '≤ 15 µM'),
  ('Hexanoyl-[3Amb]FGLKLDRIS[Ebe]-NH2 (SMILES CCCCCC(=O)NCc1cccc(C(=O)N[C@@H](Cc2ccccc2)C(=O)NCC(=O)N[C@@H](CC(C)C)C(=O)N[C@@H](CCCCN)C(=O)N[C@@H](CC(C)C)C(=O)N[C@@H](CC(=O)O)C(=O)N[C@@H](CCCNC(=N)N)C(=O)N[C@H](C(=O)N[C@@H](CO)C(=O)N[C@@H](CSC)C(N)=O)[C@@H](C)CC)c1) [JAL-0543]', '≤ 15 µM'),
  ('Octanoyl-[dA]F[dR]L[Hyp][NMeL]DR[Ac5c]-NH2 [JAL-1306]', '≤ 5 µM');

Specify EC50 group, cGMP in GTM-3 cells for [Occ][AFL][dL]L[Hyp][NMeL]DRI-NH2 [JAL-1671] and stop.
≤ 1 µM
